test system: A549-ACTB-RAB5A; assay: phenotypically active (imaging signature differs from DMSO and reproducible) at any of 0.3-9 uM (binary (1 = active, 0 = inactive)); higher = active; settings: treatment time: 24 h
compounds and their reported phenotypically active
Respond with the number and no other words.

For N#CC(CCN1CCC(C(=O)O)(c2ccccc2)CC1)(c1ccccc1)c1ccccc1 [difenoxin] the compound record lists phenotypically active as 0

For O=C1CN=C(c2ccccc2)c2cc(Cl)ccc2N1CC(F)(F)F [halazepam] the compound record lists phenotypically active as 0

For C=CCC1(C(C)C#CCC)C(=O)NC(=O)N(C)C1=O (stereo not given) [methohexital] the compound record lists phenotypically active as 0

For COc1ccc2c3c1O[C@H]1C(=O)CC[C@H]4[C@@H](C2)N(C)CC[C@]314 [hydrocodone] the compound record lists phenotypically active as 0

For CCCCCOc1ccc(C(=O)c2cccc3ccccc23)c2ccccc12 the compound record lists phenotypically active as 0

====

system: WPMY1-CANX-COX4; experiment: phenotypically active (imaging signature differs from DMSO and reproducible) at any of 0.3-9 uM (binary (1 = active, 0 = inactive)); higher = active; details: treatment time: 24 h
Where a name gives a salt, the structure may show the parent alone.
compounds and their reported phenotypically active
Respond with the number and no other words.

A selection of reference data follows.
[[record]]
compound = "CNCC(O)c1ccc(O)c(OC)c1 (stereo not drawn) [Metanephrine hydrochloride DL]"
measured = 0

[[record]]
compound = "C[C@H]1C(=O)O[C@@H]2CCN3CC=C(COC(=O)[C@](C)(O)[C@]1(C)O)[C@H]23 [Monocrotaline]"
measured = 0

[[record]]
compound = "O=C(O)CC[N+](=O)[O-] [3-Nitropropionic acid]"
measured = 0


For C=C[C@]12CN(C)[C@@H]3[C@H]4CO[C@H](C[C@H]41)[C@]1(C(=O)Nc4ccccc41)[C@@H]32 [Gelsemine] the compound record lists phenotypically active as 0

====

system: HepG2-GM130-SQSTM1; experiment: phenotypically active (imaging signature differs from DMSO and reproducible) at any of 0.3-9 uM (binary (1 = active, 0 = inactive)); higher = active; conditions: treatment time: 24 h
Outcome (select one): 1 (active), 0 (inactive)

Solved entries:
[[record]]
molecule = "O=C1C[C@@H]2OCC=C3C[N+]4([O-])CC[C@]56c7ccccc7N1[C@H]5[C@H]2[C@H]3C[C@@H]64 (stereo not given in full)"
target_under_test = "HepG2-GM130-SQSTM1"
answer_label = 0

[[record]]
molecule = "COC1=CC(C)=C[C@@H](C)[C@@H](O)[C@@H](C)CC(C)=CC=C[C@H](OC)[C@@H]([C@@H](C)[C@@H](O)[C@H](C)[C@@]2(O)C[C@@H](O)[C@H](C)[C@@H](C(C)C)O2)OC1=O"
target_under_test = "HepG2-GM130-SQSTM1"
answer_label = 1

[[record]]
molecule = "C[C@H](N)Cc1ccccc1"
target_under_test = "HepG2-GM130-SQSTM1"
answer_label = 0

[[record]]
molecule = "C[C@H]1C(=O)O[C@@H]2CCN3CC=C(COC(=O)[C@](C)(O)[C@]1(C)O)[C@H]23"
target_under_test = "HepG2-GM130-SQSTM1"
answer_label = 0

[[record]]
molecule = "CC(C)(N)Cc1ccccc1"
target_under_test = "HepG2-GM130-SQSTM1"
answer_label = 0


For CCC(=O)C(CC(C)N(C)C)(c1ccccc1)c1ccccc1 (stereo not given) , which call appears in the assay record?
0

For C[C@]12CC[C@H]3[C@@H](CC[C@]4(O)C[C@@H](O)CC[C@]34C=O)[C@@]1(O)CC[C@@H]2C1=CC(=O)OC1 , which call appears in the assay record?
1

For CN1C2CCC1CC(O)C2 (stereo not given) , which call appears in the assay record?
0

For Cc1sc2c(c1C)C(c1ccc(Cl)cc1)=N[C@@H](CC(N)=O)c1nnc(C)n1-2 , which call appears in the assay record?
1
